conditions: 0.1N HCL, 1.0% DMSO, 24-hour incubation at ambient temperature, maximum theoretical compound concentration 100 μM
experimental-readout: pH 2 solubility

These solved cases illustrate the format of a correct answer.
[[record]]
compound = "CC(C)(C#Cc1ccc(-c2ccc(Cl)c3c(N(C(=O)CCCN(CCC(=O)O)C(=O)OCOP(=O)(O)O)S(C)(=O)=O)nn(CC(F)(F)F)c23)c([C@H](Cc2cc(F)cc(F)c2)NC(=O)Cn2nc(C(F)(F)F)c3c2C(F)(F)[C@@H]2C[C@H]32)n1)S(C)(=O)=O [Compound 31]"
experimental_readout = "pH 2 solubility"
val = "1 μM"

[[record]]
compound = "CN(CC(=O)N(c1nn(CC(F)(F)F)c2c(-c3ccc(C#CC(C)(C)S(C)(=O)=O)nc3[C@H](Cc3cc(F)cc(F)c3)NC(=O)Cn3nc(C(F)(F)F)c4c3C(F)(F)[C@@H]3C[C@H]43)ccc(Cl)c12)S(C)(=O)=O)C(=O)OCOP(=O)(O)O [Compound 37]"
experimental_readout = "pH 2 solubility"
val = "1 μM"

[[record]]
compound = "CC(C)(C#Cc1ccc(-c2ccc(Cl)c3c(N(C(=O)CCCC(=O)O)S(C)(=O)=O)nn(CC(F)(F)F)c23)c([C@H](Cc2cc(F)cc(F)c2)NC(=O)Cn2nc(C(F)(F)F)c3c2C(F)(F)[C@@H]2C[C@H]32)n1)S(C)(=O)=O [Compound 25]"
experimental_readout = "pH 2 solubility"
val = "1/1 μM"

[[record]]
compound = "CC(C)(CNC(=O)OCOP(=O)(O)O)CC(=O)N(c1nn(CC(F)(F)F)c2c(-c3ccc(C#CC(C)(C)S(C)(=O)=O)nc3[C@H](Cc3cc(F)cc(F)c3)NC(=O)Cn3nc(C(F)(F)F)c4c3C(F)(F)[C@@H]3C[C@H]43)ccc(Cl)c12)S(C)(=O)=O [Compound 41]"
experimental_readout = "pH 2 solubility"
val = "1 μM"

[[record]]
compound = "C[C@H](N)C(=O)N(c1nn(CC(F)(F)F)c2c(-c3ccc(C#CC(C)(C)S(C)(=O)=O)nc3[C@H](Cc3cc(F)cc(F)c3)NC(=O)Cn3nc(C(F)(F)F)c4c3C(F)(F)[C@@H]3C[C@H]43)ccc(Cl)c12)S(C)(=O)=O [Compound 18]"
experimental_readout = "pH 2 solubility"
val = "60 μM"

[[record]]
compound = "CC(C)(C#Cc1ccc(-c2ccc(Cl)c3c(N(C(=O)CN)S(C)(=O)=O)nn(CC(F)(F)F)c23)c([C@H](Cc2cc(F)cc(F)c2)NC(=O)Cn2nc(C(F)(F)F)c3c2C(F)(F)[C@@H]2C[C@H]32)n1)S(C)(=O)=O [Compound 12]"
experimental_readout = "pH 2 solubility"
val = "65 μM"

[[record]]
compound = "CN(C(=O)N(c1nn(CC(F)(F)F)c2c(-c3ccc(C#CC(C)(C)S(C)(=O)=O)nc3[C@H](Cc3cc(F)cc(F)c3)NC(=O)Cn3nc(C(F)(F)F)c4c3C(F)(F)[C@@H]3C[C@H]43)ccc(Cl)c12)S(C)(=O)=O)c1ncc(C(=O)O)cc1COP(=O)(O)O [Compound 62]"
experimental_readout = "pH 2 solubility"
val = "1 μM"


Now, please, on to the next compound.
Entry under test: CC(C)[C@H](N)C(=O)N(c1nn(CC(F)(F)F)c2c(-c3ccc(C#CC(C)(C)S(C)(=O)=O)nc3[C@H](Cc3cc(F)cc(F)c3)NC(=O)Cn3nc(C(F)(F)F)c4c3C(F)(F)[C@@H]3C[C@H]43)ccc(Cl)c12)S(C)(=O)=O [Compound 20] . Its pH 2 solubility was 69 μM

Each recorded value in this set is attributed to patent US11787825B2.
